Recorded measurements of solubility, one per entry
- protocol.description: Solubility of the compound at pH 6.5
- Assay type: physicochemical
- condition.description: buffer

CCc1ccc2c(C)nc(NC3=NC(C)(C)CC(C)=N3)nc2c1 | > 100 µM
CN1C2CCC1CC(=NOC(c1ccccc1)c1ccc(Cl)cc1)C2 (stereo not drawn) | > 100 µM

Sure, the documented solubility for CCc1ccc2c(C)nc(NC3=NC(C)(C)C=C(C)N3)nc2c1 is > 100 µM

###

- protocol.description: Dissociation constant, pKa of the compound
- Assay type: physicochemical
test.readout: pKa
Response field accepts a number only; no unit should be typed.

Answered cases to consult:
CN1C2CCC1CC(=NOC(c1ccccc1)c1ccc(Cl)cc1)C2 (stereo not drawn) | 8.34
CCc1ccc2c(C)nc(NC3=NC(C)(C)CC(C)=N3)nc2c1 | 2

For the next question, use this molecule.
Reported pKa of CCc1ccc2c(C)nc(NC3=NC(C)(C)C=C(C)N3)nc2c1 : 2.4

###

- target.entity: Trypanothione reductase (Trypanosoma cruzi)
- Sequence (P28593 whole entry): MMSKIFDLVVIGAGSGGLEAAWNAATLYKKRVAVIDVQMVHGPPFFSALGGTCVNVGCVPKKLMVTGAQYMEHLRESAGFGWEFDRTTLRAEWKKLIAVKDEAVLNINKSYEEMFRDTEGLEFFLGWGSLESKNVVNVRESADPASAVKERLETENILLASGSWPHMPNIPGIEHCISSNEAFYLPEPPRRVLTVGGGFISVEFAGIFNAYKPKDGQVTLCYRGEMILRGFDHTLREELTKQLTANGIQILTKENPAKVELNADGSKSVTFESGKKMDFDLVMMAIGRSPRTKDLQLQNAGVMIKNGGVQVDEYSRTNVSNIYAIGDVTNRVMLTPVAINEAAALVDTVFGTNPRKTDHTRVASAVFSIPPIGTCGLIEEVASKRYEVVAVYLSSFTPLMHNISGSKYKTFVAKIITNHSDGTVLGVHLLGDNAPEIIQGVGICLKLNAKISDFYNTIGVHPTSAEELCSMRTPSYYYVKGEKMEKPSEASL
- protocol.description: Inhibition of Trypanosoma cruzi X10/1 trypanothione reductase assessed as inhibition of thionitrobenzoate formation by microplate reader analysis
Reported pIC50 values are given for each entry in this list.
Hey, just a heads up that pIC50 is the negative log base 10 of the concentration in molar.

CC1=CC(C)(C)N=C(Nc2nc(C)c3cc(C)cc(C)c3n2)N1 | 4.77
CN1/C(=C/C=C2\C=Nc3ccccc32)C=Cc2ccccc21 | 4.64
N=c1n(CCOc2ccccc2)c2ccccc2n1CCN1CCCCC1 | 5.05
COc1nncc(-c2cnnc(SC)n2)n1 | 4.57
CCOc1ccc2c(C)nc(NC3=NC(C)(C)CC(C)=N3)nc2c1 | 4.55
CCc1ccc2c(C)nc(NC3=NC(C)(C)CC(C)=N3)nc2c1 | 4.49

Then there is this molecule:
CN1C2CCC1CC(=NOC(c1ccccc1)c1ccc(Cl)cc1)C2 (configuration not stated) yielded pIC50 of 4.48

###

- target.entity: Trypanothione reductase (Trypanosoma cruzi)
- protocol.description: Inhibition of Trypanosoma cruzi X10/1 trypanothione reductase assessed as inhibition of thionitrobenzoate formation by microplate reader analysis
test.readout: IC50

These recorded examples may help you get a feel for the data.
Cc1cc(C)c2c(C)nc(Nc3nc(C)cc(C)n3)nc2c1 | > 100 µM
S=C(Nc1cccnc1)NC1CCN(Cc2ccccc2)CC1 | 2 µM

Please examine the following record next.
Record summary for Cc1cc(C)c2nc(Nc3nc(C)c(C)c(O)n3)nc(C)c2c1 : reported IC50 = > 100 µM

###

- target.entity: Glutathione reductase (Homo sapiens)
- protocol.description: Inhibition of human glutathione reductase
test.readout: IC50

IC50 value, target or system Glutathione reductase (Homo sapiens), for N=c1n(CCOc2ccccc2)c2ccccc2n1CCN1CCCCC1 : > 100 µM

###

- System: Leishmania donovani
- protocol.description: Antiprotozoal activity against Leishmania donovani MHOM/ET/67/L82 amastigotes
- Format: functional, organism-based
Listing of recorded IC50 by entry.

Example compounds with recorded IC50:
CN1C2CCC1CC(=NOC(c1ccccc1)c1ccc(Cl)cc1)C2 (centres undefined) | > 30 µM
Cc1nc(NC(=N)N)nc2ccccc12 | > 64 µM

IC50 reported for this compound S=C(Nc1cccnc1)NC1CCN(Cc2ccccc2)CC1 : > 30 µM

# compound N=c1n(CCOc2ccccc2)c2ccccc2n1CCN1CCCCC1 ; its IC50 = > 30 µM
